assay_remarks: Inhibition of I-apamin-sensitive SKCa channel of guinea-pig hepatocytes; 0.14+/-0.01
Type: cell-based, Cavia porcellus
condition_parameters: hepatocyte

# smiles_representation, Ki, pM
rows = [
    ("c1ccc2c(c1)c1cc[n+]2CCCCC[n+]2ccc(c3ccccc32)NCCCCCN1", 140),
]

###

pIC50 values by entry
assay_remarks: Inhibition of apamin-sensitive SKCa channel of guinea-pig hepatocytes
Assay type: cell-based, Cavia porcellus
condition_parameters: hepatocyte
pIC50: −log10 of the molar value.

# molecule, pIC50
data = [
    ("COc1ccc(CC2c3cc(OC)c(OC)cc3CC[N+]2(C)CCC(=O)OCCCCCOC(=O)CC[N+]2(C)CCc3cc(OC)c(OC)cc3C2Cc2ccc(OC)c(OC)c2)cc1OC (stereo not drawn)", 5.52),
    ("Nc1c2ccccc2nc2ccccc12", 3.92),
    ("COc1cc(NC(C)CCCN)c2ncccc2c1 (stereo not drawn)", 3.01),
]
